# System: LOC_OS02G07810-cb001
# assay-method-text: thermal shift delta Tm vs DMSO control; higher = stronger stabilization (binding);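 further: purified Escherichia coli-expressed rice kinase domain construct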
# condition-summary: 12.5 µM; protein concentration 2 µM
Listed below: thermal shift delta Tm values for each entry.
reported-property: thermal shift delta Tm (°C)

>>> print(df.to_string())
                                    compound  observed_measurement
 0  CCNC(=O)Nc1ccc(-c2nc(N3CCOC[C@@H]3C)c3c(n2)C(C)(C)S(=O)(=O)C3)cc1                 -0.58
 1  Cn1cc(-c2ccc3nnc(Sc4ccc5ncccc5c4)n3n2)cn1                  0.16
 2  Cn1cc(-c2ccc3nnc(C(F)(F)c4ccc5ncccc5c4)n3n2)cn1                  0.91
 3  C=CC(=O)Nc1cccc(C)c1Nc1ncc2cc(-c3c(Cl)c(OC)cc(OC)c3Cl)ccc2n1                  0.78
 4  O=C(Nc1cccc(Nc2ncc(Br)c(NCCc3cnc[nH]3)n2)c1)N1CCCC1                  0.15
 5       O=S(=O)(c1cccc2c(I)cccc12)N1CCCNCC1                  0.33
 6  Cc1cc(C(C)Nc2ccccc2)c2nc(N3CCOCC3)cc(=O)n2c1 (stereo not given)                  0.27
 7  CCS(=O)(=O)N1CCN(c2ccc(Nc3ncc(C(N)=O)c(NC4CC4)n3)cc2)CC1                  0.35
 8  C=CC(=O)Nc1cccc(Nc2nc(Nc3ccc(Oc4ccnc(C(=O)NC)c4)cc3)ncc2F)c1                  0.76
 9  CN1c2ccccc2C(=O)Nc2cnc(Nc3ccc(N4CCC(O)CC4)cc3)nc21                  0.39
10  CNC(=O)c1nn(C)c2c1C(C)(C)Cc1cnc(Nc3ccc(N4CCN(C)CC4)cc3)nc1-2                  0.68
11  CC(C)(CCCCCC(O)CCCCCC(C)(C)C(=O)O)C(=O)O                   0.4
12  O=c1[nH]nc(Sc2ncc([N+](=O)[O-])s2)n1-c1ccc2c(c1)OCCO2                  1.41
13  C[C@]1(O)C[C@@H](c2nc(-c3ccc4ccc(-c5ccccc5)nc4c3)c3c(N)nccn32)C1                  1.27
14  CC1Oc2cc(cnc2N)-c2c(nn(C)c2C#N)CN(C)C(=O)c2ccc(F)cc21 (stereo not given)                 -0.27
15  CC1(C)CNc2cc(NC(=O)c3cccnc3NCc3ccncc3)ccc21 [Motesanib Diphosphate (AMG-706)]                  0.59
16  c1cncc(CN2CCC(n3ncc4c(N5CCOCC5)nc(-c5ccc6[nH]ccc6c5)nc43)CC2)c1                  0.62
17  O=c1cc(N2CCOCC2)oc2c(-c3cccc4c3sc3ccccc34)cccc12                 -0.42
18        Oc1ccc(Nc2nc(-c3ccc(Cl)cc3)cs2)cc1                  0.81
19  C[C@@H](N)[C@H]1CC[C@H](C(=O)Nc2ccncc2)CC1                   0.9

====

# Tested on: LOC_OS05G30820-cb001
# assay-method-text: thermal shift delta Tm vs DMSO control; higher = stronger stabilization (binding)
# condition-summary: 12.5 µM; protein concentration 2 µM
reported-property: thermal shift delta Tm (°C)

                                   compound                target  observed_measurement
0  Cc1c(CN2CCN(C(=O)[C@H](C)O)CC2)sc2c(N3CCOCC3)nc(-c3cnc(N)nc3)nc12  LOC_OS05G30820-cb001                  0.58
1  CCn1c2ccccc2c2cc(Nc3ccnc(NCCCN4CCOCC4)n3)ccc21  LOC_OS05G30820-cb001                  0.41
2  COc1cc(N2CCC(N)CC2)ccc1Nc1ncc(Cl)c(-c2c[nH]c3ccccc23)n1  LOC_OS05G30820-cb001                  2.33
3        Oc1ccc(Nc2nc(-c3ccc(Cl)cc3)cs2)cc1  LOC_OS05G30820-cb001                  1.05
4   CCn1c(=O)c(-c2cc[nH]n2)cc2c(C)nc(N)nc21  LOC_OS05G30820-cb001                  0.35
5  CC(C)c1c2cc(-c3ccnc(NC4CCC(NC5CCOCC5)CC4)n3)ccc2nn1C (centres undefined)  LOC_OS05G30820-cb001                  0.45
6  CNCc1ccc(-c2cc(-c3nc(-c4ccc(S(=O)(=O)C(C)C)cc4)cnc3N)on2)cc1  LOC_OS05G30820-cb001                  0.64
7  CNC(=O)c1ccccc1Sc1ccc2c(/C=C/c3ccccn3)n[nH]c2c1  LOC_OS05G30820-cb001                  0.45
8  CN(C[C@@H]1COCCO1)S(=O)(=O)Nc1ccc2ccc3ncc(-c4cnn(C)c4)cc3c(=O)c2c1  LOC_OS05G30820-cb001                  1.85

====

# Test system: LOC_OS04G41100-cb001
# Sequence (as listed by the source): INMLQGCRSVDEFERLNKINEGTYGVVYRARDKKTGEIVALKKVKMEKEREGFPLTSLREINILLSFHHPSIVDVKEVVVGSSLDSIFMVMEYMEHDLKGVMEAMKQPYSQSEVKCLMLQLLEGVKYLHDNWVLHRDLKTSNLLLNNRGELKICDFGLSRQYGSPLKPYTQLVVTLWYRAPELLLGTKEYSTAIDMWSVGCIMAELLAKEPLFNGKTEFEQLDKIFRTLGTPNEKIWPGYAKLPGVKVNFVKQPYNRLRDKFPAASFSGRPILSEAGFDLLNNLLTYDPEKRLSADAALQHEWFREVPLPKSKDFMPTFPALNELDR
# assay-method-text: thermal shift delta Tm vs DMSO control; higher = stronger stabilization (binding)
# condition-summary: 12.5 µM; protein concentration 2 µM
Label Not fulfilled if thermal shift delta Tm falls below 0.3 °C; label Fulfilled in every other case.

molecule	label
COc1ccc(-c2nc(N3CCOCC3)c3sc(CN(C)c4ncc(C(=O)NO)cn4)cc3n2)cn1	Not fulfilled
Nc1nc2cc(-c3ccc4ncc(C(=O)N5CCOCC5)n4c3)ccc2o1 [Serabelisib (INK-1117,MLN-1117,TAK-117)]	Fulfilled
CNC(=O)CN1CCC(Oc2cc3c(Nc4cccc(Cl)c4F)ncnc3cc2OC)CC1 [Sapitinib (AZD8931)]	Fulfilled
COc1ccc2c(c1)[C@]1(C[C@H]1c1ccc3c(/C=C/c4ccc(CN5C[C@@H](C)O[C@@H](C)C5)cc4)n[nH]c3c1)C(=O)N2	Not fulfilled
Oc1cc(CNC(=S)/C=C/c2cc(O)c(O)c(Br)c2)cc(O)c1O	Not fulfilled
O=C1NC(=O)C(=Cc2ccc(-c3ccc(F)cc3)o2)S1 (stereo in doubt)	Fulfilled

====

# Test system: LOC_OS04G57630-cb004
# assay-method-text: thermal shift delta Tm vs DMSO control; higher = stronger stabilization (binding)
# condition-summary: 12.5 µM; protein concentration 2 µM
Where a name gives a salt, the structure may show the parent alone.
Listing of recorded thermal shift delta Tm by entry.
reported-property: thermal shift delta Tm (°C)

>>> print(df.to_string())
                                    compound                target       reported_property  observed_measurement
 0  COc1ncc(-c2cc(-c3ncc(CN4C[C@@H](C)O[C@@H](C)C4)o3)c3cn[nH]c3c2)cc1NS(C)(=O)=O  LOC_OS04G57630-cb004  thermal shift delta Tm                  0.12
 1              Cc1ccc(S(=O)(=O)/C=C/C#N)cc1  LOC_OS04G57630-cb004  thermal shift delta Tm                  2.48
 2  C[C@@H]1COCCN1c1cc(=O)n2c(n1)N(Cc1cncc(Cl)c1)[C@H](C(F)(F)F)CC2  LOC_OS04G57630-cb004  thermal shift delta Tm                  0.52
 3  CNC(=O)c1cc(Oc2ccc(NC(=O)Nc3ccc(Cl)c(C(F)(F)F)c3)cc2)ccn1 [Sorafenib Tosylate]  LOC_OS04G57630-cb004  thermal shift delta Tm                   1.2
 4  Cc1ccc(NC(=O)c2ccc(CN3CCN(C)CC3)cc2)cc1Nc1nccc(-c2cccnc2)n1 [Imatinib (STI571)]  LOC_OS04G57630-cb004  thermal shift delta Tm                  0.39
 5  CN1CCN(Cc2ccc(NC(=O)Nc3ccc(Oc4ccnc(N)n4)cc3)cc2C(F)(F)F)CC1  LOC_OS04G57630-cb004  thermal shift delta Tm                  6.19
 6  O=C(O)[C@]1(Cc2cccc(Nc3nccs3)n2)CC[C@@H](Oc2cccc(Cl)c2F)CC1  LOC_OS04G57630-cb004  thermal shift delta Tm                  1.26
 7  COc1cc2ncnc(Nc3ccc(Oc4ccccc4)cc3C)c2cc1OC  LOC_OS04G57630-cb004  thermal shift delta Tm                  0.31
 8  Cc1ccc(Nc2cc(N[C@@H]3CCCC[C@@H]3N)nnc2C(N)=O)nc1C  LOC_OS04G57630-cb004  thermal shift delta Tm                 -0.04
 9  c1nc2c(NC3CCCCC3)nc(Nc3ccc(N4CCOCC4)cc3)nc2[nH]1  LOC_OS04G57630-cb004  thermal shift delta Tm                  3.78
10  CC[C@@H]1C(=O)N(C)c2cnc(Nc3ccc(C(=O)N[C@H]4CC[C@H](N5CCN(CC6CC6)CC5)CC4)cc3OC)nc2N1C(C)C  LOC_OS04G57630-cb004  thermal shift delta Tm                  0.28
11  CCCCCCCCCC(=O)CC(O)S(=O)(=O)O (configuration not stated) [Sodium Houttuyfonate]  LOC_OS04G57630-cb004  thermal shift delta Tm                  0.61
12  Cn1ncc(Cl)c1-c1cc(C(=O)N[C@H](CN)Cc2cccc(F)c2)sc1Cl  LOC_OS04G57630-cb004  thermal shift delta Tm                 -0.03
13  CN(C)CCOc1ccc(-c2nc(-c3ccncc3)c(-c3ccc4c(c3)CC/C4=N\O)[nH]2)cc1  LOC_OS04G57630-cb004  thermal shift delta Tm                  0.24
14  Cc1cc(Nc2cc(N3CCN(C)CC3)nc(Sc3ccc(NC(=O)C4CC4)cc3)n2)n[nH]1  LOC_OS04G57630-cb004  thermal shift delta Tm                  5.53
15  CN1CCN(c2ccc3nc(-c4c(N)c5c(F)cccc5[nH]c4=O)[nH]c3c2)CC1 [Dovitinib (TKI-258) Dilactic Acid]  LOC_OS04G57630-cb004  thermal shift delta Tm                  3.62
16  CCN1CCN(Cc2ccc(C(=O)Nc3ccc(C)c(Oc4ccc5c(c4)CC(=O)N5)c3)cc2C(F)(F)F)CC1  LOC_OS04G57630-cb004  thermal shift delta Tm                  0.33
